Let's go through some log10 of Ki measurements on Adenosine receptor A2a (Homo sapiens) together.
Sequence (P29274 whole entry): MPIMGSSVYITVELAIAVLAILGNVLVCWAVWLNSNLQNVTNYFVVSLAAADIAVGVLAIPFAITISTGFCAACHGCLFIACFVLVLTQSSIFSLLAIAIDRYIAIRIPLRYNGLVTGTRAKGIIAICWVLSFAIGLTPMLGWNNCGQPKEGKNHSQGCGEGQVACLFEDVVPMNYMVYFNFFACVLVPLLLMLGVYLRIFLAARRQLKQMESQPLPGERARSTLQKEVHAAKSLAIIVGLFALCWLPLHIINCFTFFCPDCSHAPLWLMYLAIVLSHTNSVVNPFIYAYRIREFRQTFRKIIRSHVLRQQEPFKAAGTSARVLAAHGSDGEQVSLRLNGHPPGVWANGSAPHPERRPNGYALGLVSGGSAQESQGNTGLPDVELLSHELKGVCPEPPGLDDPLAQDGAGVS
Hi team, quick reminder: these entries are log10 of Ki (nM).

SMILES_STRING | log10 of Ki
CCCn1c(=O)c2[nH]c(-c3ccc(N)cc3)cc2n(CCC)c1=O | 2.21

Fill in: log10 of Ki of CCCn1c(=O)c2[nH]c(-c3ccc(OC)cc3)cc2n(CCC)c1=O is ___
2.30

====

Let's go through some pKi measurements on Adenosine receptor A2b (Homo sapiens) together.
Sequence (P29275 whole entry): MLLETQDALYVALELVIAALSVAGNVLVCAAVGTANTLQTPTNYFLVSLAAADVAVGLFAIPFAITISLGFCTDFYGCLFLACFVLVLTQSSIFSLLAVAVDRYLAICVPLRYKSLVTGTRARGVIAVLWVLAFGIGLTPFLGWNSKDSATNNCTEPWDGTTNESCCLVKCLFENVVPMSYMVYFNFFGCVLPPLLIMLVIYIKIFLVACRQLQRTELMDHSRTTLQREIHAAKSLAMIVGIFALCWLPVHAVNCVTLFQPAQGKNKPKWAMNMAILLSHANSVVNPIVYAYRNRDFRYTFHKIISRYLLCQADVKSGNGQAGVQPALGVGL
// scale note: pKi = -log10(conc_M); give the bare number

Worked examples follow.
SMILES_STRING | RECORDED_MEASUREMENT
Cc1ccc(-c2cc3c([nH]2)c(=O)n(C)c(=O)n3C)cc1 | 6.34
CCCn1c(=O)c2[nH]c(-c3ccc(N)cc3)c(O)c2n(CCC)c1=O | 7.72
CCCn1c(=O)c2[nH]c(-c3ccc(N)cc3)cc2n(CCC)c1=O | 8.05

I'm curious: which pKi was measured for Cn1c(=O)c2[nH]c(-c3ccc(S(C)(=O)=O)cc3)c(O)c2n(C)c1=O tested on Adenosine receptor A2b (Homo sapiens)?
7.17

I'm curious: which pKi was measured for CCCn1c(=O)c2[nH]c(-c3ccc(O)cc3)c(O)c2n(CCC)c1=O tested on Adenosine receptor A2b (Homo sapiens)?
7.96

====

The following compounds are shown together with reported Ratio Ki values.
- Tested on: HeLa
- ASSAY_PROCEDURE: Selectivity index, ratio of Ki for human cloned adenosine A2A receptor expressed in human HeLa cells to Ki for human cloned adenosine A2B receptor expressed in HEK293 cells
- Assay type: cell-based
Write no unit; give the number alone.

SMILES_STRING | Ratio Ki
CCCn1c(=O)c2[nH]c(-c3ccccc3)c(O)c2n(CCC)c1=O | 0.93
Cc1ccc(-c2[nH]c3c(=O)n(C)c(=O)n(C)c3c2O)cc1 | 4.8

Here is another compound to look at.
Fill in: Ratio Ki of CCCn1c(=O)c2[nH]c(-c3ccc(C(C)=O)cc3)c(O)c2n(CCC)c1=O is ___
4.6

====

- SYSTEM: Adenosine receptor A2b (Homo sapiens)
OBSERVED_PROPERTY: Ki
A complete answer gives the number and then names the unit.

Worked examples follow.
SMILES_STRING | OBSERVED_PROPERTY | RECORDED_MEASUREMENT
CCCn1c(=O)c2c(cc(-c3ccc(C)cc3)n2O)n(CCC)c1=O | Ki | 589 nM
CCCn1c(=O)c2[nH]c(-c3ccc([N+](=O)[O-])cc3)c(O)c2n(CCC)c1=O | Ki | 50 nM

Here is another molecule to look at.
Fill in: Ki of CCCn1c(=O)c2c(cc(-c3ccccc3)n2O)n(CCC)c1=O is ___
676 nM

====

- System: HeLa
- ASSAY_PROCEDURE: Selectivity index, ratio of Ki for human cloned adenosine A2A receptor expressed in human HeLa cells to Ki for human cloned adenosine A2B receptor expressed in HEK293 cells
- Assay type: cell-based
OBSERVED_PROPERTY: Ratio Ki
Write no unit; give the number alone.

SMILES_STRING | RECORDED_MEASUREMENT
CCCn1c(=O)c2[nH]c(-c3ccc(OC)cc3)c(O)c2n(CCC)c1=O | 6.2
CCCn1c(=O)c2c(cc(-c3ccc(OC)cc3)n2O)n(CCC)c1=O | 1.3

Fill in: Ratio Ki of CCCn1c(=O)c2[nH]c(-c3ccc(OCC(=O)Nc4ccc(Br)cc4)cc3)c(O)c2n(CCC)c1=O is ___
100

Fill in: Ratio Ki of CCCn1c(=O)c2[nH]c(-c3ccc(OCC(=O)Nc4ccc(Br)cc4)cc3)cc2n(CCC)c1=O is ___
14

Fill in: Ratio Ki of CCCn1c(=O)c2[nH]c(-c3ccco3)c(OS(=O)(=O)O)c2n(CCC)c1=O is ___
11.7

This collection of values is drawn from ChEMBL document CHEMBL1142545.
